# assaySystem: human B1R receptor (bradykinin 1 receptor) (Homo sapiens, UniProt P46663)
# Construct: host or cells: CHO K1 cells (hB1R cells)
# Sequence (P46663 whole entry): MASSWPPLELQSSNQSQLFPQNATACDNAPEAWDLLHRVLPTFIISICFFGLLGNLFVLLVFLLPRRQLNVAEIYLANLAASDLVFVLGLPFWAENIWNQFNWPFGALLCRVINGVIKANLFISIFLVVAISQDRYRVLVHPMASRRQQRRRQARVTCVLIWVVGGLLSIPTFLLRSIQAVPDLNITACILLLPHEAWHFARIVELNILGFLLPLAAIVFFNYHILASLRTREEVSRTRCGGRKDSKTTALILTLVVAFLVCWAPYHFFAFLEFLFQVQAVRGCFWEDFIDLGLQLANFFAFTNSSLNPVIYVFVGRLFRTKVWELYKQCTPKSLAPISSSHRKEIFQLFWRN
# protocolText: FLIPR Ca2+ assay (Fluo-4) on CHO K1 cells stably transfected with the human B1R gene; % activation and % inhibition at 10 μM
# Assay type: cell-based
# conditionsUsed: CHO-K1, test substance 10 μM; CHO K1 hB1R cells; Ca2+ inflow after 0.5 nM Lys-Des-Arg9-bradykinin; read-out: B1R antagonism, human [10 μM] % inhibition

- compound: "O=C(COCC1CCCN1S(=O)(=O)c1c(Cl)cccc1Cl)N1CCC(O)(c2ccc(Br)cc2)CC1 (stereo not shown)"
  inhibition at 10 µM (%): 102
- compound: "COc1cc(C)c(S(=O)(=O)N(C)CCOCC(=O)N2CCC(O)(c3ccccc3)CC2)c(C)c1"
  inhibition at 10 µM (%): 101
- compound: "Cc1cc(Cl)cc(Cl)c1S(=O)(=O)N(C)CCOCC(=O)N1CCC(O)(c2ccc(Cl)cc2)CC1"
  inhibition at 10 µM (%): 99.7
- compound: "O=C(COCC1CCCN1S(=O)(=O)c1cc(Cl)sc1Cl)N1CCC(O)(c2cccs2)CC1 (stereo not shown)"
  inhibition at 10 µM (%): 21.9
- compound: "O=C(COCC1CCCCN1S(=O)(=O)c1ccccc1C(F)(F)F)N1CCC(O)(c2ccc(Cl)cc2)CC1 (stereo not shown)"
  inhibition at 10 µM (%): 103
- compound: "COc1ccc(S(=O)(=O)N2CCC(OCC(=O)N3CCC(O)(Cc4ccccc4)CC3)(c3ccccc3)CC2)cc1"
  inhibition at 10 µM (%): 9.32
- compound: "O=C(COCC1CCCCN1S(=O)(=O)c1c(Cl)cccc1Cl)N1CCC(O)(c2cccnc2)CC1 (stereo not shown)"
  inhibition at 10 µM (%): 103
